Listed next: entries and their corresponding Bliss excess.
System: NCI-H1568 (Lung Adenocarcinoma);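 also: after 72 h of two-drug dosing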
Assay: Bliss excess, mean over the matrix (fraction); higher = more synergy
Reply with the value as a number alone.

Recorded results for 6 compounds are shown here.
compound | quantitative-readout
COc1nnc2ccc(N3CCC(c4ccc(OCCN5CCN(C)C(=O)[C@H]5C)cc4)CC3)nn12 [AZD5153] + CN(CC[C@H](CSC1=CC=CC=C1)NC2=C(C=C(C=C2)S(=O)(=O)NC(=O)C3=CC=C(C=C3)N4CCC(CC4)[C@H](C5=CC=CC=C5C6=CC=C(C=C6)Cl)O)S(=O)(=O)C(F)(F)F)CCO [AZD4320] (first compound max 1 µM, 7x7, partner max 1 µM) | -0.044
CC(=O)c1c(C)c2cnc(Nc3ccc(N4CCNCC4)cn3)nc2n(C2CCCC2)c1=O [Palbociclib] + Cc1c2c(nn1C)CSCc1cc(n(C)n1)CSc1cc(c3ccccc3c1)OCCCc1c(C(=O)O)n(C)c3c-2c(Cl)ccc13 [AZD5991] (first compound max 10 µM, 7x7, partner max 1 µM) | -0.0149
COc1nnc2ccc(N3CCC(c4ccc(OCCN5CCN(C)C(=O)[C@H]5C)cc4)CC3)nn12 [AZD5153] + Cn1cnc2c(F)c(Nc3ccc(Br)cc3Cl)c(C(=O)NOCCO)cc21 [Selumetinib] (first compound max 1 µM, 7x7, partner max 10 µM) | -0.0099
NC1(C(=O)N[C@@H](CCO)c2ccc(Cl)cc2)CCN(c2ncnc3[nH]ccc23)CC1 [Capivasertib] + CCN(CCO)CCCOc1ccc2c(Nc3cc(CC(=O)Nc4cccc(F)c4)[nH]n3)ncnc2c1 [AZD2811] (first compound max 10 µM, 7x7, partner max 1 µM) | -0.0235
NC1(C(=O)N[C@@H](CCO)c2ccc(Cl)cc2)CCN(c2ncnc3[nH]ccc23)CC1 [Capivasertib] + CC(=O)c1c(C)c2cnc(Nc3ccc(N4CCNCC4)cn3)nc2n(C2CCCC2)c1=O [Palbociclib] (first compound max 10 µM, 7x7, partner max 10 µM) | -0.124
CC(=O)c1c(C)c2cnc(Nc3ccc(N4CCNCC4)cn3)nc2n(C2CCCC2)c1=O [Palbociclib] + CC1(C)CCC(CN2CCN(c3ccc(C(=O)NS(=O)(=O)c4ccc(NCC5CCOCC5)c([N+](=O)[O-])c4)c(Oc4cnc5[nH]ccc5c4)c3)CC2)=C(c2ccc(Cl)cc2)C1 [Venetoclax] (first compound max 10 µM, 7x7, partner max 1 µM) | -0.0506

I would be grateful if you could share the reported Bliss excess for Cc1cc2ncnn2cc1Nc1ncc2c(n1)n(C1CCOCC1)c(=O)n2C [AZD7648] + C[C@@H]1COCCN1C2=NC(=NC(=C2)C3(CC3)[S@](=N)(=O)C)C4=C5C=CNC5=NC=C4 [AZD6738] (first compound max 10 µM, 7x7, partner max 10 µM) . 0.0383

I would be grateful if you could share the reported Bliss excess for CN(CCO)CC[C@H](CSc1ccccc1)Nc1ccc(S(=O)(=O)NC(=O)c2ccc(N3CCC([C@@H](O)c4ccccc4-c4ccc(Cl)cc4)CC3)cc2)cc1S(=O)(=O)C(F)(F)F [AZD4320] + CCN(CCO)CCCOc1ccc2c(Nc3cc(CC(=O)Nc4cccc(F)c4)[nH]n3)ncnc2c1 [AZD2811] (first compound max 1 µM, 7x7, partner max 1 µM) . -0.0102

I would be grateful if you could share the reported Bliss excess for CN(C)CCCOc1ccc(-c2ccc3ncc4c(c3c2)n(C2CCOCC2)c(=O)n4C)cn1 [AZD0156] + O=C(c1cc(Cc2n[nH]c(=O)c3ccccc23)ccc1F)N1CCN(C(=O)C2CC2)CC1 [Olaparib] (first compound max 3 µM, partner max 3 µM) . 0.0101
